test: Pharmacokinetic drug interaction study: aripiprazole single dose alone or after 6-day bupropion pretreatment, LC-MS/MS quantification, non-compartmental analysis; conditions: male, Wistar albino, rat, plasma, po, 8 mg/kg, MRT, aripiprazole in rat plasma; ARI 8 mg/kg single dose after 6-day BUP 43 mg/kg pretreatment (test, n = 12); mean ± S.D.

Molecule	MRT / h
O=C1CCc2ccc(OCCCCN3CCN(c4cccc(Cl)c4Cl)CC3)cc2N1 [Aripiprazole]	19.2

----------
assay: Pharmacokinetic drug interaction study: aripiprazole single dose alone or after 6-day bupropion pretreatment, LC-MS/MS quantification, non-compartmental analysis; settings: male, Wistar albino, rat, plasma, po, 8 mg/kg, AUC0–30, aripiprazole in rat plasma; ARI 8 mg/kg single dose after 6-day BUP 43 mg/kg pretreatment (test, n = 12); mean ± S.D.

Smiles Representation	AUC(0-t) (ng·h/mL)
O=C1CCc2ccc(OCCCCN3CCN(c4cccc(Cl)c4Cl)CC3)cc2N1	5390

----------
test: Pharmacokinetic drug interaction study: aripiprazole single dose alone or after 6-day bupropion pretreatment, LC-MS/MS quantification, non-compartmental analysis; conditions: male, Wistar albino, rat, plasma, po, 8 mg/kg, t1/2, aripiprazole in rat plasma; ARI 8 mg/kg single dose after 6-day BUP 43 mg/kg pretreatment (test, n = 12); mean ± S.D.
Assay Metric: half-life (h)

Smiles Representation	Output Unit	Reported Result
O=C1CCc2ccc(OCCCCN3CCN(c4cccc(Cl)c4Cl)CC3)cc2N1	h	11.5

----------
experiment: Pharmacokinetic drug interaction study: aripiprazole single dose alone or after 6-day bupropion pretreatment, LC-MS/MS quantification, non-compartmental analysis; conditions: male, Wistar albino, rat, plasma, po, 8 mg/kg, kel, aripiprazole in rat plasma; ARI 8 mg/kg single dose after 6-day BUP 43 mg/kg pretreatment (test, n = 12); mean ± S.D.
Assay Metric: k el (s⁻¹)

Smiles Representation	Output Unit	Reported Result
O=C1CCc2ccc(OCCCCN3CCN(c4cccc(Cl)c4Cl)CC3)cc2N1	s⁻¹	5e-05

----------
experiment: Pharmacokinetic drug interaction study: aripiprazole single dose alone or after 6-day bupropion pretreatment, LC-MS/MS quantification, non-compartmental analysis; details: male, Wistar albino, rat, plasma, po, 8 mg/kg, AUC0–30, aripiprazole in rat plasma; ARI 8 mg/kg single dose alone (reference, n = 12); mean ± S.D.

Smiles Representation	AUC(0-t) (ng·h/mL)
O=C1CCc2ccc(OCCCCN3CCN(c4cccc(Cl)c4Cl)CC3)cc2N1	1110

----------
test: Pharmacokinetic drug interaction study: aripiprazole single dose alone or after 6-day bupropion pretreatment, LC-MS/MS quantification, non-compartmental analysis; conditions: male, Wistar albino, rat, plasma, po, 8 mg/kg, Cl_F, aripiprazole in rat plasma; ARI 8 mg/kg single dose after 6-day BUP 43 mg/kg pretreatment (test, n = 12); mean ± S.D.

Compound	CL/F, mL/min/kg
O=C1CCc2ccc(OCCCCN3CCN(c4cccc(Cl)c4Cl)CC3)cc2N1 [Aripiprazole]	26.2

----------
test: Pharmacokinetic drug interaction study: aripiprazole single dose alone or after 6-day bupropion pretreatment, LC-MS/MS quantification, non-compartmental analysis; settings: male, Wistar albino, rat, plasma, po, 8 mg/kg, AUC0–∞, aripiprazole in rat plasma; ARI 8 mg/kg single dose after 6-day BUP 43 mg/kg pretreatment (test, n = 12); mean ± S.D.

Molecule	AUC(0-inf) / ng·h/mL
O=C1CCc2ccc(OCCCCN3CCN(c4cccc(Cl)c4Cl)CC3)cc2N1 [Aripiprazole]	6310

----------
assay: Pharmacokinetic drug interaction study: aripiprazole single dose alone or after 6-day bupropion pretreatment, LC-MS/MS quantification, non-compartmental analysis; details: male, Wistar albino, rat, plasma, po, 8 mg/kg, MRT, aripiprazole in rat plasma; ARI 8 mg/kg single dose alone (reference, n = 12); mean ± S.D.

Molecule	Output Unit	MRT
O=C1CCc2ccc(OCCCCN3CCN(c4cccc(Cl)c4Cl)CC3)cc2N1 [Aripiprazole]	h	4.63

----------
assay: Pharmacokinetic drug interaction study: aripiprazole single dose alone or after 6-day bupropion pretreatment, LC-MS/MS quantification, non-compartmental analysis; details: male, Wistar albino, rat, plasma, po, 8 mg/kg, Cmax, aripiprazole in rat plasma; ARI 8 mg/kg single dose after 6-day BUP 43 mg/kg pretreatment (test, n = 12); mean ± S.D.
Assay Metric: Cmax

Smiles Representation	Reported Result
O=C1CCc2ccc(OCCCCN3CCN(c4cccc(Cl)c4Cl)CC3)cc2N1	472 ng/mL
